From: patent US20240400718A1

- STUDY_TARGET: S#075: CAR with VL-L1-VH scFv, Human 2nd-generation (4-1BB)_hIL7_hCCL19_HSVtk
- TEST_DESCRIPTION: flow cytometry on CAR-T cells; PE-labeled secondary antibody; PE-positive cells / total cells
MEASUREMENT_NAME: Reactivity (%)

INSERT INTO assay_data (binder, numeric_result) VALUES
  ('4B9-B11 (antibody, V domains shown) VH: QMQLKESGPGLVQPSETLSLTCTVSGFSLTSYSVSWVRQPSGKGPEWMGRMYYDGDTAYNSALKSRLSISRDTSKNQVFLKMNSLQTDDTGTYYCTRSIGAEDYWGQGVMVTVSS VL: TSYELIQPPSASVTLGNTVSLTCVGDELPKRYAYWYQQKPDQSIVRVIYEDSKRPSGISDRFSGSSSGTTATLTIRDAQNEDEADYYCHSTYSDDKLRIFGGGTKLTVLG', 35.7),
  ('3A4-A10-7 (antibody, V domains shown) VH: QVQLQQSGAALVKPGASVKMSCKASGYTFTDCWVSWVKQSHGKSLEWIGEIHPNSGTTNFNEKFKGKATLTVDKSTSTAYMELSRLTSEDSAIYYCTRAYGGYPFDYWGQGVMVTVSS VL: ADLVLTQPKSVSTSLESTVKLSCKLNSGNIGRYYMHWYQQHEGRSPTNMIYRDDKRPDGVPDRFSGSIDSSSNSAFLTINNVQTEDEAIYFCHSYDSSINIFGGGTKLTVLG', 12.3),
  ('3E7-C1 (antibody, V domains shown) VH: QVQMKESGPGLVQPSETLSLTCTVSGFSLTSYGVSWVRQPSGKGPEWMGRLWNDGDTAYNSALKSRLSISRDTSKNQVFLKMNSLQTDDTGTYYCTTMNGYKDYWGQGVMVTVSS VL: TSYELIQPPSASVTLGNTVSLTCVGDELPKRYAYWYQQKPDQSIVRVIYEDSKRPSGISDRFSGSSSGTTATLTIRDAQAEDEADYYCHSTYSDDKLRIFGGGTKLTVLG', 25.9),
  ('2D12-B12 (antibody, V domains shown) VH: EVKLVESGGGLVQPGRSLKLSCAASGFNFNDYWMGWVRQAPGKGLEWIGEIKKDSSIINYIPSLKDKFTISRDNAQNTLYLQMSKLGSEDTAIYYCARGVEYYGYHYWGQGTLVTVSS VL: DIVMTQSPSSLAVSAGETVTINCKSSQSLLYSGNQKNYLAWYQQKPGQSPKLLIYWASTRHSGVPARFIGSGSGSDFTLTISSVQAEDLAIYCCQQYYDIPYTFGAGTKLELK', 15);
